viability, T/C values by entry
# Tested on: 276233-004-R-J1-PDC KRAS spheroids with HUVEC/MSC, viability;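 note: cells exposed to agents for seven days before viability read; 100% = DMSO vehicle control wells and lower values mean fewer viable cells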
# Procedure Text: Anticancer human tumor 276233-004-R-J1-PDC patient-derived colon adenocarcinoma cell line growth inhibition [KRAS2]
# Reported Conditions: second compound 0.1 µM; first compound 0.0316 µM; hits give low values
Please give a number only; it is taken to be in %.

>>> reported("Cn1nccc1Nc1nccc(-c2cc3c(s2)C(C)(C)N(CCN2CCOCC2)C3=O)n1 + CC1OCC2(CCN(c3cnc(Sc4ccnc(N)c4Cl)c(N)n3)CC2)C1N")
86.9
>>> reported("CC(=O)Nc1cccc(-n2c(=O)n(C3CC3)c(=O)c3c(Nc4ccc(I)cc4F)n(C)c(=O)c(C)c32)c1 + C=CC(=O)N1CCN(c2nc(=O)n(-c3c(C)ccnc3C(C)C)c3nc(-c4c(O)cccc4F)c(F)cc23)C(C)C1")
21.3

Measured viability, T/C of CC(=O)Nc1cccc(-n2c(=O)n(C3CC3)c(=O)c3c(Nc4ccc(I)cc4F)n(C)c(=O)c(C)c32)c1 + COc1cc2nc(C)nc(NC(C)c3cc(N)cc(C(F)(F)F)c3)c2cc1OC1CCOC1 : 17

Measured viability, T/C of CC1(C)CCC(CN2CCN(c3ccc(C(=O)NS(=O)(=O)c4ccc(NCC5CCOCC5)c([N+](=O)[O-])c4)c(Oc4cnc5[nH]ccc5c4)c3)CC2)=C(c2ccc(Cl)cc2)C1 + C=CC(=O)N1CCN(c2nc(OCC3CCCN3C)nc3c2CCN(c2cccc4cccc(C)c24)C3)CC1CC#N : 80.3

Measured viability, T/C of CC1COCCN1c1cc(-c2ccnn2C)c2ccnc(-c3ccn[nH]3)c2n1 (stereo not given) + CC1OCC2(CCN(c3cnc(Sc4ccnc(N)c4Cl)c(N)n3)CC2)C1N : 96

Recorded values, source PubChem BioAssay AID1963873.
